- System: KM12
- assay.comment: NCI tumour cell line growth inhibition, 48 h
The source made the active and inactive calls. No stated cut-off is given here; in the data, active = GI50 up to about 1.1 µM and inactive = higher.

molecule	GI50
CC1CC[C@]2(C(=O)O)CCC3(C)C(=CCC4[C@@]5(C)CC[C@H](OS(=O)(=O)c6ccccc6)C(C)(C)C5CC[C@]43C)[C@@H]2[C@H]1C (stereo partly specified)	> 100 µM (inactive)
CCN(CC)C(=S)N/N=C/c1cc(OC)ccc1O	1.7 µM (inactive)
CCOC(=O)/C(=C/c1ccc(Cl)cc1)N(CC)CC	> 100 µM (inactive)
COC(=O)c1nc(N)nc(O)c1-c1ccc(Cl)cc1	> 100 µM (inactive)
Clc1ccccc1-c1nc(-c2ccncc2)no1 [PIFEXOLE]	> 100 µM (inactive)
CSCCCNC(=O)c1csc(-c2csc(CCNC(=O)CNC(=O)CNC(=O)OC(C)(C)C)n2)n1	> 100 µM (inactive)
COc1ccc(N2C(=O)C(=O)C3(CCCCC3)C2=O)c2ccccc12	> 10 µM (inactive)
CC1(C)C(=O)C(=Cc2ccco2)C1=O	> 100 µM (inactive)
CC(C)C(Nc1ncnc2nc[nH]c12)C(=O)O (stereo unspecified)	> 100 µM (inactive)
CCOC(=O)c1cc2c3c(c(C(C)=O)c(OC)c2[nH]1)N(C(=O)CC)CC3	10.7 µM (inactive)
O=C(/C(=N/Nc1cn[nH]c(=O)c1Cl)c1ccccc1)c1ccccc1	12.8 µM (inactive)

###

- System: CCRF-CEM
- assay.comment: NCI tumour cell line growth inhibition, 48 h
Activity calls are given as the source filed them. Cut-off read from the data, not from the text of the source: active = GI50 up to about 1.1 µM and inactive = higher.
Measured GI50 of individual entries
assay.readout: GI50

molecule	reported.measurement
Oc1ccc(Br)cc1/C=N/c1ccc(Oc2ccc(/N=C/c3cc(Br)ccc3O)cc2)cc1	> 19.6 µM (inactive)
N=C(N)NS(=O)(=O)c1ccc(NC(=O)c2ccc3nc4ccccc4c(O)c3c2)cc1	> 100 µM (inactive)
O=[N+]([O-])c1ccc2c(c1)nc1n2C(c2c(F)cccc2F)SC1 (stereo not given)	> 100 µM (inactive)
O=C(c1ccccc1Cl)n1oc2ccccc2c1=O	27.5 µM (inactive)
O=C(CSc1nnc(-c2ccc(/N=C\c3ccc(Cl)cc3)cc2)o1)Nc1ccccc1[N+](=O)[O-]	> 100 µM (inactive)
O=C(O)[C@H]1NC[C@H]2C(Br)=NO[C@@H]12	> 100 µM (inactive)
C=CCCCC12CCCc3cccc(c31)NC2=O (stereo not given)	16.9 µM (inactive)
N#CC12CC=C(c3ccccc3)N=C1NC(c1ccccc1)=CC2 (stereo not given)	32.2 µM (inactive)
COc1cc(O)c2c(=O)c(OC)c(-c3ccc4c(c3)OCO4)oc2c1	> 100 µM (inactive)
O=C(O)CCSc1nnc(COc2ccc(Cl)cc2)n1-c1ccccc1	95.3 µM (inactive)

###

Where a SMILES comes first, the peptide text is derived from it. The star is where a group is joined. Boc = CC(C)(C)OC(=O)*
Consider the following GI50 values measured on HCT-15.

molecule	GI50
O=c1[nH]c(=O)n(C2OC(CO)C(O)C2O)c2nc(-c3ccc(-c4ccccc4)cc3)cnc12 (stereo unspecified)	> 100 µM
C[N+](C)(C)CC(=O)N/N=C/c1ccncc1	> 100 µM
Clc1ccc2[nH]c(CC3CCCC3)nc2c1	6.87 µM
O=C(Cc1ccc([N+](=O)[O-])cc1)OCC#CCOC(=O)Cc1ccc([N+](=O)[O-])cc1	> 10 µM
NC(=O)N(O)c1cccc(Br)c1	> 100 µM
CN1C(=O)c2ccccc2NC(=O)c2cnn(C)c21	> 100 µM
O=C(NCCNCCO)c1cccc2ccc(-c3ccccc3)nc12	3.8 µM
CSCCCNC(=O)c1csc(-c2csc(CCNC(=O)CNC(=O)CNC(=O)OC(C)(C)C)n2)n1	> 100 µM
CC(C)(C)OC(=O)NCC(=O)NCC(=O)NCC(=O)NCC(=O)O (Boc-GGGG-OH)	> 100 µM
CC(=O)c1nc(C#N)c(N)o1	> 100 µM
c1csc(-c2cc(-c3ccsc3)cs2)c1	> 100 µM
